- System: MYLK4
- condition: concentration: 1 μM, replicates: in singlicate; n = 1;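 note: KINOMEscan kinase panel screen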
recorded.endpoint: %Inh
Answer format reminder: number followed by unit.

Some solved entries appear below for comparison.
Record for `COc1ccc2nc(-c3cccc(C)n3)nc(Nc3ccncc3)c2c1` under target or system MYLK4: %Inh reported as 0%

Record for `Cn1ccc2ncnc(Oc3ccc(NC(=O)Nc4ccccc4)cc3)c21` under target or system MYLK4: %Inh reported as 0%

Record for `Cc1ccccc1-n1cnc2c(N)ncnc21` under target or system MYLK4: %Inh reported as 0%

Record for `CC(C)(C)c1ccc(C(=O)Nc2cn3cc(-c4cccnc4)ccc3n2)cc1` under target or system MYLK4: %Inh reported as 11%

More entries:
Record for `CCn1c(-c2cccnc2O)nc2cnccc21` under target or system MYLK4: %Inh reported as 0%

Record for `COc1ccccc1CNC(=O)c1cc(C(=O)c2ccccc2C)c[nH]1` under target or system MYLK4: %Inh reported as 3%

Record for `O=C(Nc1ccccc1)Nc1cccc(Oc2ccc3nccn3n2)c1` under target or system MYLK4: %Inh reported as 0%

Record for `CN(C)CCN(C)C(=O)c1cc(-c2ccncc2)c(-c2ccc(Cl)c(O)c2)o1.Cl.Cl` under target or system MYLK4: %Inh reported as 0%

Record for CCCc1ccc(S(=O)(=O)NC2CCN(c3ccnc(Nc4ccc(F)cc4)n3)C2)cc1 (stereo not shown) under target or system MYLK4: %Inh reported as 0%

Record for COc1cc(Nc2nccc(N3CCC(NC(=O)Nc4cc(C)ccc4C)C3)n2)cc(OC)c1OC (stereo not shown) under target or system MYLK4: %Inh reported as 0%

---

- Test system: PIK3CG
- condition: concentration: 1 μM, replicates: in singlicate; n = 1
Each entry below carries its reported %Inh.
// units = %; emit number, no label

Looking up `O=C(Nc1ccccc1)Nc1cccc(Oc2ccc3nccn3n2)c1` , I found its %Inh recorded as 6

More entries:
Looking up `Cc1cccc(-c2nc(Nc3ccc4[nH]ncc4c3)c3ccccc3n2)n1` , I found its %Inh recorded as 0

Looking up `CCn1c(-c2cccnc2O)nc2cnccc21` , I found its %Inh recorded as 1

Looking up `Cc1cccc(-c2nc(C)cc(Nc3ccncc3)n2)n1` , I found its %Inh recorded as 5

Looking up `COc1ccccc1CNC(=O)c1cc(C(=O)c2ccccc2C)c[nH]1` , I found its %Inh recorded as 0

Looking up `Cc1cc(N2Cc3ccccc3C2)nc(Nc2ccc(S(=O)(=O)N3CCOCC3)cc2)n1.Cl` , I found its %Inh recorded as 48

Looking up `O=C1NC(=O)C(N2CCc3ccccc32)=C1c1ccccc1Cl` , I found its %Inh recorded as 12

Looking up COc1cc(Nc2nccc(N3CCC(NC(=O)Nc4cc(C)ccc4C)C3)n2)cc(OC)c1OC (stereo not drawn) , I found its %Inh recorded as 0

Looking up `Cc1ccc(-c2cc(-c3c[nH]nc3-c3ccccn3)ccn2)cc1` , I found its %Inh recorded as 4

---

- Test system: RIPK2
- condition: concentration: 1 μM, replicates: in singlicate; n = 1
recorded.endpoint: %Inh (%)
// units = %; emit number, no label

Looking up `CS(=O)(=O)c1ccc(-c2c(-c3ncn[nH]3)sc(N3CCOCC3)c2C#N)cc1` , I found its %Inh recorded as 0

Looking up `CN1C(=O)C(Nc2ccc(Cl)c(C(=O)O)c2)=C(c2ccc(Cl)cc2)C1=O` , I found its %Inh recorded as 0

Provenance of the data: paper PMC5540273
